These data points were gathered from ChEMBL document CHEMBL5661982.

- Test system: COLO 205
- TEST: Antiproliferative activity against human COLO 205 cells over expressing c-Met assessed as reduction in cell viability after 48 to 72 hrs by MTT assay
pIC50: −log10 of the molar value.
METRIC: pIC50

Form field: reported pIC50 of `OCCn1cc(-c2cnc3nnn(Cc4ccc5ncccc5c4)c3n2)cn1`
< 5.00

###

- EXPERIMENTAL_TARGET: Tyrosine-protein kinase receptor UFO (Homo sapiens, UniProt P30530)
- TEST: Inhibition of AXL expressed in HEK293 cells assessed as reduction in Gas6-stimulated AXL phosphorylation incubated for 1 hr by sandwich ELISA analysis
METRIC: IC50

Checklist item: IC50 tested on Tyrosine-protein kinase receptor UFO (Homo sapiens, UniProt P30530), entry `OCCn1cc(-c2cnc3nnn(Cc4ccc5ncccc5c4)c3n2)cn1` , value?
> 10 µM

###

- Test system: GTL 16 cell line
- TEST: Antiproliferative activity against human GTL 16 cells over expressing c-Met assessed as reduction in cell viability after 48 to 72 hrs by MTT assay
METRIC: IC50
Please make sure the unit comes right after the number.

So what's the measured IC50 for this one? `OCCn1cc(-c2cnc3nnn(Cc4ccc5ncccc5c4)c3n2)cn1`
12 nM

###

- EXPERIMENTAL_TARGET: Insulin receptor (Homo sapiens, UniProt P06213)
- Sequence (P06213 28-758 limits assumed): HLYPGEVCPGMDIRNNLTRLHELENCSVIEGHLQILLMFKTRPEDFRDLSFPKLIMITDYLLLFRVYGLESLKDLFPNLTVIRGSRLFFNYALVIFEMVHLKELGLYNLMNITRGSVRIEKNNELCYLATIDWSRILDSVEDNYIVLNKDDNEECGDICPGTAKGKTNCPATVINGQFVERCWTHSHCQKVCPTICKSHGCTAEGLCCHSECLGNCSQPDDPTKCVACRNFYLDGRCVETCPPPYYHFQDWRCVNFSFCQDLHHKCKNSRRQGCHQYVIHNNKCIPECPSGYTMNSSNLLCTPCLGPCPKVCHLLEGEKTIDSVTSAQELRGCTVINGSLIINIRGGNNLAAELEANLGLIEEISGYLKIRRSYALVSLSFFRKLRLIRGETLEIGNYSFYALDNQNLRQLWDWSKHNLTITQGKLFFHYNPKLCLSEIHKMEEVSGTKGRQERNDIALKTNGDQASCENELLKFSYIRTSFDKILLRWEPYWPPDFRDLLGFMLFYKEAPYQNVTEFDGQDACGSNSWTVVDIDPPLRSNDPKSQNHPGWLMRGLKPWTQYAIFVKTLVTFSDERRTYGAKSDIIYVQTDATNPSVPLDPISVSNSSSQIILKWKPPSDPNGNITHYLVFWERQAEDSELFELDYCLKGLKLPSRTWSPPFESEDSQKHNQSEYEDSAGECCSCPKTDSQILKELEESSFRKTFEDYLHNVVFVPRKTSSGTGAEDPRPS
- Sequence (P06213 763-1382 limits assumed): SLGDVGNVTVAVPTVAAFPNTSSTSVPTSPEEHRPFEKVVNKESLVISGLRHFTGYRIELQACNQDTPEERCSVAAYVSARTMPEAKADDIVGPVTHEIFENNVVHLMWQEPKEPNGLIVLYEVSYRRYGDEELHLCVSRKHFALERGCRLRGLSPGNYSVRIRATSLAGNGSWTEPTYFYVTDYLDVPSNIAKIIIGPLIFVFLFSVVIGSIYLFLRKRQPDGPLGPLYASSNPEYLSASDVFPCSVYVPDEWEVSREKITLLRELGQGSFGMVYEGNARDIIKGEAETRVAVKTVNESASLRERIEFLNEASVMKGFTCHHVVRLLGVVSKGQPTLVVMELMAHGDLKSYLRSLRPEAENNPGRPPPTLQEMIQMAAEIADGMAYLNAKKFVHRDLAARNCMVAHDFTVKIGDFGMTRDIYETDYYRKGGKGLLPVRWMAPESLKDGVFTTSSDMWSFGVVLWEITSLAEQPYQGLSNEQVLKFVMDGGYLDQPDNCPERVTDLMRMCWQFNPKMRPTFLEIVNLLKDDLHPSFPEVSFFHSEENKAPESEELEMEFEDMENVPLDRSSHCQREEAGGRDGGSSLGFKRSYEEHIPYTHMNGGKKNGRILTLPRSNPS
- TEST: Inhibition of Insulin receptor expressed in HEK293 cells assessed as reduction insulin-stimulated INSR phosphorylation incubated for 1 hr by sandwich ELISA analysis
pIC50: −log10 of the molar value.
METRIC: pIC50

For the compound shown here, OCCn1cc(-c2cnc3nnn(Cc4ccc5ncccc5c4)c3n2)cn1 [PF-04217903] , give the reported pIC50.
< 5.00

###

- EXPERIMENTAL_TARGET: UniProt:Q60751
- TEST: Inhibition of IGF1R expressed in mouse NIH3T3 cells assessed as reduction in IGF-stimulated IGF1R phosphorylation incubated for 1 hr by sandwich ELISA analysis
pIC50: −log10 of the molar value.
METRIC: pIC50

Given `OCCn1cc(-c2cnc3nnn(Cc4ccc5ncccc5c4)c3n2)cn1` , state its recorded pIC50.
< 5.00

###

- EXPERIMENTAL_TARGET: SLC34A2-ROS1 (Homo sapiens)
- Sequence (P08922 whole entry): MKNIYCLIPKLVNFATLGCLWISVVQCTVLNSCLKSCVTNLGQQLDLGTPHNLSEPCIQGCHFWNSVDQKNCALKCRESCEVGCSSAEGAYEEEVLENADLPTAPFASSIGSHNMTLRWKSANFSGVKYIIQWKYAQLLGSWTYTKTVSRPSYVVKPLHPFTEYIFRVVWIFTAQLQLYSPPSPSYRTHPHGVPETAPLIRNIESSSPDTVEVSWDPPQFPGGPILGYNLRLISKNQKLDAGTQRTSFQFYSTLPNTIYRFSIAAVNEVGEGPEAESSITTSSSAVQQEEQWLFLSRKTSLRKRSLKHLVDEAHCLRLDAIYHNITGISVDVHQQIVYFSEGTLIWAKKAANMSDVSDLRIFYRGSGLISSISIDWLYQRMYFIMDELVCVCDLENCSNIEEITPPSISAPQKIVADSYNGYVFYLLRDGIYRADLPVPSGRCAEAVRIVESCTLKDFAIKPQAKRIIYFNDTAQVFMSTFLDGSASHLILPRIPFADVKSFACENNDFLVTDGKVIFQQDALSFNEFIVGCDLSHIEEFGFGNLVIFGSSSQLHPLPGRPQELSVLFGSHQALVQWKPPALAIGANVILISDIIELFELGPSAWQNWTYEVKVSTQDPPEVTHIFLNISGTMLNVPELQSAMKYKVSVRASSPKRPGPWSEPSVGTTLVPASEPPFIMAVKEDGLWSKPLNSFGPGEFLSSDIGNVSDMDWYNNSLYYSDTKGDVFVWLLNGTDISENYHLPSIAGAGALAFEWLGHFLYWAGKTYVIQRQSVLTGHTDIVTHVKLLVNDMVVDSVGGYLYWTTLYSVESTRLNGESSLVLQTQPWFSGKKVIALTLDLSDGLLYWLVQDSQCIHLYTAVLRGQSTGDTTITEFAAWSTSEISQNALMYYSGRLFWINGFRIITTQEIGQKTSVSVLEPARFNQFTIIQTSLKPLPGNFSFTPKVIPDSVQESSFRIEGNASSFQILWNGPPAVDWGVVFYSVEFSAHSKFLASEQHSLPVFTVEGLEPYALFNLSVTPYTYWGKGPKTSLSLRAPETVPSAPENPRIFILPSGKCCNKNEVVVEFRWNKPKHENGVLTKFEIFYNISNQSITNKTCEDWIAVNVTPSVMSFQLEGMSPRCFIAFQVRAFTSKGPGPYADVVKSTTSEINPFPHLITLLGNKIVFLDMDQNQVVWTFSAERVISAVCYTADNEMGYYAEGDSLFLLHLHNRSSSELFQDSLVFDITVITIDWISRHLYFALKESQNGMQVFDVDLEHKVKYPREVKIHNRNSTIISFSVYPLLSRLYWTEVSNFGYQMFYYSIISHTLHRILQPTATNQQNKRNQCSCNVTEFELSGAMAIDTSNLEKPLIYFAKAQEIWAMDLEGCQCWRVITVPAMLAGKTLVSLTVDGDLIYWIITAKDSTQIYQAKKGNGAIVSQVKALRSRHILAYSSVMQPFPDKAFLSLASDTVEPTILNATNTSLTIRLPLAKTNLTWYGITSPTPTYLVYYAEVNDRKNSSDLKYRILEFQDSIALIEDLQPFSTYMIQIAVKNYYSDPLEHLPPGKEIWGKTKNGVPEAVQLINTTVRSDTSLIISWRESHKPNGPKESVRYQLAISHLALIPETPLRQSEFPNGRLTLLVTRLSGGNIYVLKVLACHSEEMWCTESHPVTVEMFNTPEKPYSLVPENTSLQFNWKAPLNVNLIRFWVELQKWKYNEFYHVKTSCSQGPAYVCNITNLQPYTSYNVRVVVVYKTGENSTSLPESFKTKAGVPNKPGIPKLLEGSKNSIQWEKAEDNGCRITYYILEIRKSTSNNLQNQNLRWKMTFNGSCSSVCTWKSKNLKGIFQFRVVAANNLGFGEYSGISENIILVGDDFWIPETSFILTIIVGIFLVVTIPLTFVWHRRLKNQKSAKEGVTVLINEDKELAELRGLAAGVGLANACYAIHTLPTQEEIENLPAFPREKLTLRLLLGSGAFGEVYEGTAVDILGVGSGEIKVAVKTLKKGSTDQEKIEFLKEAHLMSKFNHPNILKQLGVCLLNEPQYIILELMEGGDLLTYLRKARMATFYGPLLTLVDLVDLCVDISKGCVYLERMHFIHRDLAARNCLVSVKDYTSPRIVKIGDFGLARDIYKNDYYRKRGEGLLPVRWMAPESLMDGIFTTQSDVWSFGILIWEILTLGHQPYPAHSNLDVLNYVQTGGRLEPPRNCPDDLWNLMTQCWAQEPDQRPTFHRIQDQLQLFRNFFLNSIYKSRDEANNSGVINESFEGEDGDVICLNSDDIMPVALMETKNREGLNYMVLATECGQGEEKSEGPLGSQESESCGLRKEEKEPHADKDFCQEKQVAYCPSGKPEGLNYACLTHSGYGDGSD
- Sequence (O95436 whole entry, further chain): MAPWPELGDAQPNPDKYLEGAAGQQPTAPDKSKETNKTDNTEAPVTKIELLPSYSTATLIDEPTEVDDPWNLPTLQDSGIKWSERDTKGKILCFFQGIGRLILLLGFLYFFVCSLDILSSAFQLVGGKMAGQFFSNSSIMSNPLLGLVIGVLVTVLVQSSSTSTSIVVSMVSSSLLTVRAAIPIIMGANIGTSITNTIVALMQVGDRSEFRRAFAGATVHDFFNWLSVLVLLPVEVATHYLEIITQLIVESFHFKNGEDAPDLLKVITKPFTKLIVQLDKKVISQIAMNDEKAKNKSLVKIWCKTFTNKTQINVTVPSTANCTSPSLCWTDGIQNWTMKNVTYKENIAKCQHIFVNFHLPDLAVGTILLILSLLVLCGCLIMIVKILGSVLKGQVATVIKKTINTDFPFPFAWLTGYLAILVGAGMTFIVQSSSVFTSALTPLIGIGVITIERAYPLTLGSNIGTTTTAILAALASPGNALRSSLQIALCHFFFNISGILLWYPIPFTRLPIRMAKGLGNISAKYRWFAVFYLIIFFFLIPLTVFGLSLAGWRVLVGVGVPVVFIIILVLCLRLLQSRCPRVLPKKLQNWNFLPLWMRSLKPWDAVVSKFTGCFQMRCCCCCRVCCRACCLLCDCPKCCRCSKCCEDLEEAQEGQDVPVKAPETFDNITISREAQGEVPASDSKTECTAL
- TEST: Inhibition of SLC34A2-Ros phosphorylation in human HCC87 cells incubated for 1 hr by sandwich ELISA analysis
pIC50: −log10 of the molar value.
METRIC: pIC50

Field request: pIC50 | item: OCCn1cc(-c2cnc3nnn(Cc4ccc5ncccc5c4)c3n2)cn1 [PF-04217903]
< 5.00

###

- EXPERIMENTAL_TARGET: UniProt P16056
- TEST: Inhibition of c-Met phosphorylation in HGF-stimulated mIMCD3 cells incubated for 1 hr by sandwich ELISA analysis
METRIC: IC50
Hi, when you answer, please include the unit after the number. Thanks!

Look at this compound and give its reported IC50. `OCCn1cc(-c2cnc3nnn(Cc4ccc5ncccc5c4)c3n2)cn1`
6.9 nM

###

- EXPERIMENTAL_TARGET: Hepatocyte growth factor receptor (Canis lupus familiaris, UniProt Q75ZY9)
- TEST: Inhibition of c-Met phosphorylation in HGF-stimulated dog MDCK cells incubated for 1 hr by sandwich ELISA analysis
METRIC: pIC50
The meaning of pIC50 here: minus log10 of the concentration in molar units.

Quick one: pIC50 for `OCCn1cc(-c2cnc3nnn(Cc4ccc5ncccc5c4)c3n2)cn1` ?
8.02
